- Assay info: Serum Calcium/Plasma Calcitonin Determination Assay (acute/subacute, rats)
- Assay type: in vivo, Sprague Dawley rats
- Condition details: subacute, sc, n=8, 30 mg/kg/2x/day, Examples 5 and 7 marked * (p<0.05 vs. vehicle)
Measurement kind: % Increase Plasma Calcitonin (%)
Respond with the bare value in %.

Answered cases to consult:
[
  {
    "Substance smiles": "CCCCn1c(=O)c2nn(S(=O)(=O)c3ccc4ccccc4c3)cc2n(CCCC)c1=O",
    "% Increase Plasma Calcitonin / %": 8
  },
  {
    "Substance smiles": "CCCCn1c(=O)c2nn(S(=O)(=O)c3cc(Cl)c(Cl)s3)cc2n(CCCC)c1=O",
    "% Increase Plasma Calcitonin / %": 12
  },
  {
    "Substance smiles": "CCCCn1c(=O)c2cn(S(=O)(=O)c3c(C)nn(C)c3Cl)nc2n(CCCC)c1=O",
    "% Increase Plasma Calcitonin / %": 80
  }
]

API: the following record is the query input.
// % Increase Plasma Calcitonin lookup, molecule = `CCCCn1c(=O)c2nn(S(=O)(=O)c3ccc(C(C)(C)C)cc3)cc2n(CCCC)c1=O` , result: 101

---

- Test system: C1-3 cell line (calcitonin secretion)
- Assay info: Calcitonin Secretion/RIA Assay
- Assay type: cell-based, human
- Condition details: Homo sapiens, C13, ratio of calcitonin secretion vs untreated control, active if >2.5
Measurement kind: fold induction at 30 µM

Examples with answers:
[
  {
    "Compound": "CCCCn1c(=O)c2nn(S(=O)(=O)Cc3ccccc3)cc2n(CCCC)c1=O [Example 2]",
    "fold induction at 30 µM": 2.55
  },
  {
    "Compound": "CCCCn1c(=O)c2cn(S(=O)(=O)CCCCl)nc2n(CCCC)c1=O [Example 13]",
    "fold induction at 30 µM": 2.71
  },
  {
    "Compound": "CCCCn1c(=O)c2nn(S(=O)(=O)c3cccc4cccnc34)cc2n(CCCC)c1=O [Example 12]",
    "fold induction at 30 µM": 3.83
  },
  {
    "Compound": "CCCCn1c(=O)c2cn(S(C)(=O)=O)nc2n(CCCC)c1=O [Example 17]",
    "fold induction at 30 µM": 3.93
  },
  {
    "Compound": "CCCCn1c(=O)c2nn(S(=O)(=O)c3ccc4ccccc4c3)cc2n(CCCC)c1=O [Example 4]",
    "fold induction at 30 µM": 4.91
  }
]

Quick note, fold induction at 30 µM for CCCCn1c(=O)c2cn(S(=O)(=O)c3c(C)nn(C)c3Cl)nc2n(CCCC)c1=O [Example 7] landed at 2.92

Item: CCCCn1c(=O)c2cn(S(=O)(=O)c3ccc(OC(F)(F)F)cc3)nc2n(CCCC)c1=O [Example 14] | fold induction at 30 µM: 4.29

Record summary for CCCCn1c(=O)c2nn(S(=O)(=O)c3cc(Cl)c(Cl)s3)cc2n(CCCC)c1=O [Example 6] : reported fold induction at 30 µM = 3.4

The recorded fold induction at 30 µM for entry CCCCn1c(=O)n(C)c(=O)c2nn(S(=O)(=O)CCCCl)cc21 [Example 18] equals 1.38

# compound CCCCn1c(=O)c2cn(S(=O)(=O)Cc3ccccc3)nc2n(CCCC)c1=O [Example 19] ; its fold induction at 30 µM = 3.43

Short answer for O=c1c2cn(S(=O)(=O)CCCCl)nc2n(CC2CC2)c(=O)n1CC1CC1 [Example 22] : fold induction at 30 µM was 2.93

Looking up CCCCn1c(=O)c2cn(S(=O)(=O)c3ccc(C(F)(F)F)cc3)nc2n(CCCC)c1=O [Example 16] , I see its fold induction at 30 µM listed as 3.86
